Where do these numbers come from? They come from PubChem BioAssay (NCI).

test system: HCT-15 colon; test: NCI-60 one-dose screen, 48 h (100 = growth as untreated, 0 = no growth, -100 = all killed); details: 10 µM unless noted
About 83,000 compounds went through this panel and 20% of them were active in at least one assay; those are over-represented in the sample as a whole.
Binning scheme for growth: low class: < 20%; middle class: ≥ 20% and < 80%; high class: ≥ 80%

{"columns": ["MOLECULE", "TARGET ENTITY", "CLASSIFICATION"],
 "data": [
  ["COC(=O)C1=C(C(=O)ON)C2C=CC1(C(Cc1ccccc1)Nc1ccccc1)O2 (configuration not stated)", "HCT-15 colon", "low class"],
  ["Cc1ccc(/C=C(/C#N)n2nnc3cccc(F)c32)cc1", "HCT-15 colon", "low class"],
  ["CC(C)(C)[Si](C)(C)OC1[C@@H](O[Si](C)(C)C(C)(C)C)[C@@H](CNC(=O)NC(=O)CCl)O[C@H]1n1cnc2c(NC(=O)Nc3ccccc3)ncnc21 (some centres not stated)", "HCT-15 colon", "middle class"],
  ["Cc1cnc(C(=O)Nc2nc3ccc(S(=O)(=O)Nc4ccc(C(C)(C)C)cc4)cc3[nH]2)cn1", "HCT-15 colon", "low class"],
  ["CCCCCN1C=C/C(=C\\C(=O)N(C)c2ccccc2Br)c2ccccc21", "HCT-15 colon", "high class"],
  ["O=C(CSc1nc2ccccc2[nH]1)NCc1ccccc1", "HCT-15 colon", "high class"],
  ["Cc1ccc(C(=O)/C(=C\\c2ccc([N+](=O)[O-])cc2)S(=O)Cc2ccc(F)cc2)cc1 (configuration not stated)", "HCT-15 colon", "low class"],
  ["COc1cc(/C=N/O)nc(-c2ccccn2)c1", "HCT-15 colon", "middle class"],
  ["CCOC(=O)[C@@H]1CCCN(S(=O)(=O)c2ccc(S(=O)(=O)N(CC)CC)c(F)c2)C1", "HCT-15 colon", "high class"],
  ["CC(=O)[C@@H]1CC[C@]2(C(N)=O)CC[C@]3(C)[C@H](CC[C@@H]4[C@@]5(C)CCCNC(C)(C)[C@@H]5CC[C@]43C)[C@@H]12", "HCT-15 colon", "middle class"],
  ["O=S(=O)(NCCCNc1nccc(-c2c(-c3cccc(O)c3)nc3occn23)n1)c1ccc(Cl)cc1", "HCT-15 colon", "high class"],
  ["N#CC1C(C#N)C2c3ccccc3C=CN2C1C(=O)c1ccc(Br)cc1 (configuration not stated)", "HCT-15 colon", "high class"],
  ["COc1cc2c(c(OC)c1OC)-c1ccc(NNC(=S)N(Cc3cccc(C[N+](Cc4cccc(CNC56CC7CC(CC(C7)C5)C6)c4)(Cc4cccc(CNC56CC7CC(CC(C7)C5)C6)c4)Cc4cccc(CN(C(=S)NNc5ccc6c(cc5=O)[C@@H](NC(C)=O)CCc5cc(OC)c(OC)c(OC)c5-6)C56CC7CC(CC(C7)C5)C6)c4)c3)C34CC5CC(CC(C5)C3)C4)c(=O)cc1[C@@H](NC(C)=O)CC2 (some centres not stated)", "HCT-15 colon", "low class"],
  ["CN1C(N2CCN(S(=O)(=O)c3ccccc3)CC2)=NS(=O)(=O)c2ccccc21", "HCT-15 colon", "high class"],
  ["OCc1cnccc1NCCCCOc1ccc(Oc2ccccc2)cc1", "HCT-15 colon", "middle class"],
  ["C=C1C(=O)O[C@H]2[C@H]1CC/C(COC(=O)NCCc1c[nH]c3ccc(OC)cc13)=C\\CC[C@@]1(C)O[C@@H]21", "HCT-15 colon", "low class"],
  ["CCOC(=O)c1cc(C(=O)c2ccc(OC)cc2)n2ccc(/C=C/c3cc[n+](CC(=O)c4ccc(OC)cc4)cc3)cc12", "HCT-15 colon", "high class"],
  ["COc1cc2c(c(O)c1Cl)C(=O)c1c(O)cc(C[C@H](C)O)cc1[C@H]2[C@H]1c2cc(C[C@H](C)O)cc(O)c2C(=O)c2c1cc(OC)c(Cl)c2O", "HCT-15 colon", "low class"],
  ["COc1ccc(OC)c(CCn2cncc2-c2c[nH]c3ccccc23)c1", "HCT-15 colon", "middle class"],
  ["CC(=O)O[C@@H]1C2CCC3C(CC[C@@]4(C)C3CC[C@@H]4C(C)N(C)C)[C@@]2(C)CC[C@@H]1NC(=O)C=C(C)C (some centres not stated)", "HCT-15 colon", "low class"],
  ["C=C(C)[C@@H]1CC[C@]2(C(=O)N3CCN(C)CC3)CC[C@]3(C)[C@H](CC[C@@H]4[C@@]5(C)C/C(=C/c6cccnc6)C(=O)C(C)(C)[C@@H]5CC[C@]43C)[C@@H]12", "HCT-15 colon", "middle class"],
  ["COc1ccc(/C=C2\\Oc3cc(OCCCCCN4CCCCC4)ccc3C2=O)cc1OC", "HCT-15 colon", "middle class"],
  ["C[C@H]1[C@H]2[C@H]3CC[C@@H]4[C@@]5(C)CC[C@H](O)C(C)(C)[C@@H]5CC[C@@]4(C)[C@]3(C)CC[C@]23CO[C@]1(C)[C@@H](C(=O)/C=C\\c1ccco1)C3", "HCT-15 colon", "high class"],
  ["N#CC1C(C#N)C(C(=O)c2ccc(Br)cc2)N2c3ccccc3C=CC12 (configuration not stated)", "HCT-15 colon", "middle class"],
  ["CC1(C)CC(O)CCCCCCOc2c(CN)cccc2NC(=O)c2nc(cnc2N)-c2ccc(cc2)S1(=O)=O (configuration not stated)", "HCT-15 colon", "low class"],
  ["Oc1c(Cl)cc(Cl)c(Cl)c1CNCCNCc1c(O)c(Cl)cc(Cl)c1Cl", "HCT-15 colon", "middle class"],
  ["O=C(Cn1c[n+](CC(=O)c2ccc(-c3ccccc3)cc2)c2ccccc21)Nc1cccc2cccnc12", "HCT-15 colon", "high class"],
  ["CN(C)CC(O)c1ccc(/C=C/c2ccc(Cl)cc2)cc1 (configuration not stated)", "HCT-15 colon", "low class"],
  ["CCCCCN1C=C/C(=C\\C(=O)N(C)c2ccc(Oc3ccccc3)cc2)c2ccccc21", "HCT-15 colon", "high class"],
  ["NS(=O)(=O)c1ccc(CCN2C(=O)c3cc(Cl)c(Cl)cc3C2=O)cc1", "HCT-15 colon", "high class"],
  ["COc1cc(C2C3=C(COC3=O)N(CCO)c3cc4c(cc32)OCO4)cc(OC)c1OC (configuration not stated)", "HCT-15 colon", "low class"],
  ["CCCCCCOc1ccc(/C=N/Nc2cc(C)nc3ccc(Cl)cc23)cc1", "HCT-15 colon", "low class"]
]}
